Listed below: pEC50 values for each entry.
# TESTED_TARGET: T1, cynomolgus monkey CD47 on CHO-K1 cells (cynomolgus monkey, UniProt A0A5F8AK49 19-323 (rhesus entry))
# T1 construct: whole, on cells; also called CHO-K1/cyno CD47; CHO-K1/cynoCD47
# TEST: flow cytometry on CHO-K1/cyno CD47 cells; unit taken from the axis
Note on units: pEC50 is unitless, being -log10 of a concentration expressed in mol/L.

>>> test_value("112E5H7 (antibody, V domains shown, purified murine anti-CD47 hybridoma antibody; same VH and VL as 112E5D9 and 112E5F2; also called 12-112E5H7) VH: QVQLQQSGPQLVRPGASVKISCKASGYSFTNNWMHWMKQRPGQGLEWIGMIDPSDSETRLNQQFRDKATLTVDKTSSTAYMQLSSPTSEDSAVYYCARLGRYYFDYWGLGTTLTVSS VL: NIVMTQSPKSMSVSVGERVTMNCRASEIVGTYVSWYQQKPEQSPKLLIYGAFNRYTGVPDRFTGSRSGTDFSLNISNVQAEDLADYLCGQSYDSPYTFGGGTKLEIK")
8.82
>>> test_value("108C10A6 (antibody, V domains shown, also called murine anti-CD47 antibody 108C10A6; 108C10A6/108C10F5) VH: QMQLQQSGPQLVRPGASVKISCKTSGYSFTHHWIHWMKQRPGQGLEWIGMIDPSDSETRLSQKFKDKATLTVDASSSTAYMQLNSPTSEDSALYFCARLGRYYFDYWGQGTTLTVSS VL: NIVMTQSPRSMSMSVGERVTLSCKASENVGTYISWYQQKPDQSPKLLIYGASNRYTGVPDRFTGSGSGTDFTLTISTVQAEDLADYHCGESYGHLYTFGGGTKLEIK")
8.69
>>> test_value("55F2C4 (antibody, V domains shown, also called 01-55F2C4) VH: QVQLQQSGPQLVRPGASVKISCKASGYSFTNYWMHWMKQRPGQGLEWIGMIDPSDSETRLNQQFKDKATLAVDKSSSTAYMQLSSPTSEDSAVYYCARLGRYYFDYWGQGTTLTVSS VL: NIVMTQSPKSMYVSVGERVTLICRASEIVGTYVSWYQQKPEQSPKLLIYGASNRYTGVPDRFTGSRSATDFSLTISNVQAEDLADYLCGQSYDSPYTFGGGTKLEIK")
8.24

Now, please, on to the next binder.
The recorded pEC50 for entry 112E5D9 (antibody, V domains shown, purified murine anti-CD47 hybridoma antibody; same VH and VL as 112E5F2 and 112E5H7; also called 10-112E5D9) VH: QVQLQQSGPQLVRPGASVKISCKASGYSFTNNWMHWMKQRPGQGLEWIGMIDPSDSETRLNQQFRDKATLTVDKTSSTAYMQLSSPTSEDSAVYYCARLGRYYFDYWGLGTTLTVSS VL: NIVMTQSPKSMSVSVGERVTMNCRASEIVGTYVSWYQQKPEQSPKLLIYGAFNRYTGVPDRFTGSRSGTDFSLNISNVQAEDLADYLCGQSYDSPYTFGGGTKLEIK equals 8.84
